Quick reference: parasite growth, % of DMSO control of the listed items.
assay: qHTS profiling of the MIPE4 collection as inhibitors of Plasmodium falciparum (3D7) proliferation (AID 743344);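 note: scaled between DMSO vehicle wells and 0.29 µM artemisinin as full inhibition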; conditions: P. falciparum 3D7 in erythrocytes, SYBR Green DNA fluorescence, 72 h; at 28.5 µM unless noted
Positions of bridges follow the written chain, without caps; N, C: chain ends. Non-standard residues stand in square brackets, D forms with d. Residues, ends and D or L forms follow the SMILES beside them. ξ: configuration not given here. *: point of attachment. Octanoyl(6-Me) = CCC(C)CCCCC(=O)*; ξThr(3R) = C[C@@H](O)C(N)C(=O)O; dDab = NCC[C@@H](N)C(=O)O; Dab = NCC[C@H](N)C(=O)O
# output: bare number, implied unit %

Sample records with parasite growth, % of DMSO control:
[
  {
    "compound": "C[C@H](NC(=O)Cc1cc(F)cc(F)c1)C(=O)N[C@H](C(=O)OC(C)(C)C)c1ccccc1",
    "parasite growth, % of DMSO control (%)": 74.2
  },
  {
    "compound": "CCCCCCCCCCCCCCCC(=O)OC[C@@H](NC(=O)C(Cl)Cl)[C@H](O)c1ccc([N+](=O)[O-])cc1",
    "parasite growth, % of DMSO control (%)": 101
  },
  {
    "compound": "COc1cc(OC)c(NC(=O)Nc2cc(C)on2)cc1Cl",
    "parasite growth, % of DMSO control (%)": 69.1
  },
  {
    "compound": "C[C@](Cc1c[nH]c2ccccc12)(NC(=O)OC1C2CC3CC(C2)CC1C3)C(=O)NC[C@H](NC(=O)CCC(=O)O)c1ccccc1 (stereo partly drawn)",
    "parasite growth, % of DMSO control (%)": 10
  },
  {
    "compound": "C[C@H]1O[C@H](O[C@H]2[C@H](O)[C@@H](O)[C@@H](O[C@H]3[C@H](O)[C@@H](O)C(O)O[C@H]3CO)O[C@H]2CO)[C@H](O)[C@@H](O)[C@H]1N[C@H]1C=C(CO)[C@@H](O)[C@H](O)[C@@H]1O (stereo partly drawn)",
    "parasite growth, % of DMSO control (%)": 92.3
  }
]

For the compound shown here, O=C(Nc1nnc(-c2ccco2)o1)c1cc(-c2ccccc2)nc2ccccc12 , give the reported parasite growth, % of DMSO control.
51.6

For the compound shown here, COc1cc(CCc2cc(NC(=O)c3ccc(N4C[C@@H](C)N[C@@H](C)C4)cc3)n[nH]2)cc(OC)c1 , give the reported parasite growth, % of DMSO control.
50.5

For the compound shown here, COC(=O)[C@@H]1[C@H]2C[C@@H]3c4[nH]c5ccccc5c4CCN3C[C@@H]2CC[C@@H]1O , give the reported parasite growth, % of DMSO control.
79.9

For the compound shown here, C=CCNC1=C2C[C@@H](C)C[C@H](OC)[C@@H](O)[C@@H](C)C=C(C)[C@H](OC(N)=O)[C@@H](OC)C=CC=C(C)C(=O)NC(=CC1=O)C2=O , give the reported parasite growth, % of DMSO control.
5.05

For the compound shown here, O=C1NC(O)CCN1[C@@H]1O[C@H](CO)[C@H](O)[C@H]1O (stereo partly drawn) , give the reported parasite growth, % of DMSO control.
98.9

For the compound shown here, CCC(C)CCCCC(=O)N[C@@H](CCN)C(=O)NC(C(=O)N[C@H](CCN)C(=O)N[C@@H]1CCNC(=O)C([C@@H](C)O)NC(=O)[C@@H](CCN)NC(=O)[C@@H](CCN)NC(=O)[C@@H](CC(C)C)NC(=O)[C@H](Cc2ccccc2)NC(=O)[C@H](CCN)NC1=O)[C@@H](C)O (stereo partly drawn) ({Octanoyl(6-Me)}-[Dab][ξThr(3R)][dDab][dDab][Dab]F[dL][dDab][dDab][ξThr(3R)]; lactam 4-C) , give the reported parasite growth, % of DMSO control.
407

For the compound shown here, COc1ccc([C@@H]2CNC(=O)C2)cc1OC1CCCC1 , give the reported parasite growth, % of DMSO control.
106

Provenance of the data: PubChem BioAssay (NCATS)
